Reported pIC50 values for the following compounds.
Target Or System: PTPN11-E76K mutant enzyme (Homo sapiens (Human), UniProt Q06124, E76K)
Sequence (Q06124 whole entry E76K): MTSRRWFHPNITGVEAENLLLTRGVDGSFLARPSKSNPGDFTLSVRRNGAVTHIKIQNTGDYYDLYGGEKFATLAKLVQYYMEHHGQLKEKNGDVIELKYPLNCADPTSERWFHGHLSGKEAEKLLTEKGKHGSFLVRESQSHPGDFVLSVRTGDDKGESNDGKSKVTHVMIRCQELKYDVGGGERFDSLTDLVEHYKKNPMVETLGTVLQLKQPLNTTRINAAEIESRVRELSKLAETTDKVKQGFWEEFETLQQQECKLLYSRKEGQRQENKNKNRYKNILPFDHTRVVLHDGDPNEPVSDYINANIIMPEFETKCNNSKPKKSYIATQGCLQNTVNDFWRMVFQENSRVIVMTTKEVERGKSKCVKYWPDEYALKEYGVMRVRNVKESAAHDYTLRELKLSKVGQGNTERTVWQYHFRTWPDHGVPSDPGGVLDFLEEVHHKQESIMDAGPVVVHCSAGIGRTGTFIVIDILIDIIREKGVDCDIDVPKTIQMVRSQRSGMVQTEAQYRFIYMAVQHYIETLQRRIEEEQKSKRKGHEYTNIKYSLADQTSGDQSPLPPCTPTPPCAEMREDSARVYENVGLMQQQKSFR
Assay Method Text: PTPN11 Enzymatic Assay (DiFMUP phosphatase activity)
Assay type: biochemical
Experimental Setup: full length PTPN11-E76K mutant enzyme 250 pM, DiFMUP 50 μM, 30 min preincubation; read-out: PTPN11-E76K Avg IC50
Convention used: pIC50 is expressed as -log10 of the molar concentration.

Solved entries (count: 2):
> print(dat)
                                chem.smiles  readout.label  reported.measurement
1  CC1(CN)CCN(c2cnc3c(-c4cccc(Cl)c4)n[nH]c3n2)CC1          pIC50                  6.44
2  Nc1nccc(-c2n[nH]c3nc(N4CCC5(CCC[C@H]5N)CC4)cnc23)c1Cl          pIC50                  7.08

Challenge: Provide one value: measured pIC50 of CC1(N)CCN(c2cnc3c(-c4cccc(Cl)c4)n[nH]c3n2)CC1
Response given: 6.48

Challenge: Give reported pIC50 value for NCC1(O)CCN(c2cnc3c(-c4ccccc4Cl)n[nH]c3n2)CC1
Response given: 6.04

Challenge: Complete the entry with pIC50 for Clc1cccc(-c2n[nH]c3nc(N4CCC5(CCN5)CC4)cnc23)c1Cl
Response given: 6.71

Challenge: Note pIC50 for the compound shown: Cc1c(-c2n[nH]c3nc(N4CCC5(CCC[C@H]5N)CC4)cnc23)ccnc1N
Response given: 6.69

Challenge: Give pIC50 for the following compound: CNc1nccc(-c2n[nH]c3nc(N4CCC(C)(CN)CC4)cnc23)c1Cl
Response given: 7.00
